- Test: gradient 5% acetonitrile 3 min, to 50% in 2 min, to 85% in 15 min, held 3 min, 100 µL/min
- Assay Conditions: column: Zorbax Extend-C18 2.1 x 50 mm; eluents: water / acetonitrile, 0.1% formic acid
Measured Metric: RP-LC retention time (s)

O=C(Cn1ccc2sccc2c1=O)Nc1ccc(F)c(F)c1    752
CCc1ccc(Nc2cc(C(=O)N3CCC(C)CC3)nc3cc(OC)c(OC)cc23)cc1    832

1. CCC(C)Sc1nnc(-c2cn(C)nc2OC)n1CCOC (stereo not given)
2. CC(C)Oc1ccc(-c2noc(CN3N=NC4C(=O)N(c5ccc(C(C)C)cc5)C(=O)C43)n2)cc1 (stereo not given)
Exercise: // select label with min value of measured RP-LC retention time from [ 1 , 2 ] I would appreciate it if you answered with the label of your choice.
Solution: 1
(1: 634 s, 2: 1180 s)

A. Cc1cccc(NC(=O)N2CCN(c3cnn4c(C)nnc4c3)CC2)c1
B. Cc1ccc(-c2csc(-n3nc(C)c(CC(=O)N4CCCCCC4)c3C)n2)cc1
Exercise: Consider A and B . Which of these has its RP-LC retention time at a higher number? Returns: label corresponding to the selected item.
Solution: B
(B: 1270 s, A: 627 s)

* * *

- Test: gradient 5% acetonitrile 3 min, to 50% in 2 min, to 85% in 15 min, held 3 min, 100 µL/min
- Assay Conditions: column: Zorbax Extend-C18 2.1 x 50 mm; eluents: water / acetonitrile, 0.1% formic acid
Measured Metric: RP-LC retention time (s)

Consider the reported RP-LC retention time for these compounds:
Cc1ccc(-n2ncc3c(=O)n(Cc4nc(-c5ccc(F)c(Br)c5)no4)cnc32)cc1    1220
CCOC(=O)c1ccc(NC(=O)C23CCC(C)(C(=O)C2)C3(C)C)cc1 (stereo not given)    897
CSc1ccccc1C(=O)Nc1ccc(CC(=O)NCC(F)(F)F)cc1    738
O=C(c1cc2c(s1)CCC(C(=O)N1CCN(c3ccccn3)CC1)C2)N1CCCC1 (stereo not given)    600
COc1cn(CC(=O)Nc2ccccc2C)c(CSc2nc(C)cs2)cc1=O    628

1. Cc1nccn1Cc1noc(-c2ccccc2)n1
2. Cc1ccc(OCC(=O)Nc2nnc(SCc3nnc(-c4ccccc4)o3)s2)c(C)c1
Exercise: Of the pair 1 and 2 , name the member with the lesser recorded RP-LC retention time. Mark your answer with the label of the selected entry.
Solution: 1

* * *

- Test: gradient 5% acetonitrile 3 min, to 50% in 2 min, to 85% in 15 min, held 3 min, 100 µL/min
- Assay Conditions: column: Zorbax Extend-C18 2.1 x 50 mm; eluents: water / acetonitrile, 0.1% formic acid
Measured Metric: RP-LC retention time (s)

I. COc1ccccc1Nc1c(-c2ccc(Br)cc2)nc2cnccn12
II. NC1=C(Br)C(=O)c2ncccc2C1=O
Exercise: // which entry has the larger RP-LC retention time value, I or II ? Respond using the label that marks the chosen record.
Solution: I

I. CCn1c(CC2CCN(C(=O)NCC(=O)OC)C2)nc2cccnc21 (stereo not given)
II. Cc1ccc(CNC(=O)c2c(C)sc3ccn(Cc4ccc(F)cc4)c(=O)c23)o1
Exercise: Field: lower RP-LC retention time | Options: I / II Indicate which entry you chose by stating its label.
Solution: I

* * *

- Test: gradient 5% acetonitrile 3 min, to 50% in 2 min, to 85% in 15 min, held 3 min, 100 µL/min
- Assay Conditions: column: Zorbax Extend-C18 2.1 x 50 mm; eluents: water / acetonitrile, 0.1% formic acid
Measured Metric: RP-LC retention time (s)

P. Fc1ccc(OCc2nc(-c3cccc(-c4ccn[nH]4)c3)no2)cc1
Q. COCCC1CCN(C(=O)Cc2c(C)noc2C)CC1
Exercise: // returns P or Q , whichever has the lower RP-LC retention time Could you answer with the label of the item you picked?
Solution: Q

P. CCN(CC)C(=O)c1c(C)sc2ccn(Cc3ccc(F)cc3)c(=O)c12
Q. O=C(NC1CC1)c1ccc(CN2CCN(Cc3ccccc3)C(=O)C2=O)cc1
Exercise: Which value of RP-LC retention time is smaller, the one for P or the one for Q ? Mark your answer with the label of the selected entry.
Solution: P

* * *

- Test: gradient 5% acetonitrile 3 min, to 50% in 2 min, to 85% in 15 min, held 3 min, 100 µL/min
- Assay Conditions: column: Zorbax Extend-C18 2.1 x 50 mm; eluents: water / acetonitrile, 0.1% formic acid
Measured Metric: RP-LC retention time (s)

O=C1CCCCC(CNC(=O)c2ccsc2)N1 (stereo not given)    619
CCC1CCCCN1Cc1nc(Cn2ccn3nc(-c4ccccc4)cc3c2=O)no1 (stereo not given)    676
Cc1nc(-c2ccncc2)nc2c1CC(=O)N2C1CCCCC1    716
NCCSSCc1ccccc1CSSCCN    567
O=C(CSc1cc(N2CCN(c3ccccc3F)CC2)ncn1)NCc1cccs1    931

a. Cc1ccc(-c2nnc(N3CCC(C(=O)NCCN4CCCCC4C)CC3)o2)cc1 (stereo not given)
b. COc1ccc(-n2ncc3c(=O)n(Cc4nc(-c5cccc(OC)c5)no4)cnc32)cc1
Exercise: I'm curious whether a or b has the smaller RP-LC retention time number. Which is it? Answer by quoting the chosen item's label.
Solution: a

* * *

- Test: gradient 5% acetonitrile 3 min, to 50% in 2 min, to 85% in 15 min, held 3 min, 100 µL/min
- Assay Conditions: column: Zorbax Extend-C18 2.1 x 50 mm; eluents: water / acetonitrile, 0.1% formic acid
Measured Metric: RP-LC retention time (s)

Here is how some molecules turned out for RP-LC retention time.
CCOC(=O)C1CCN(S(=O)(=O)c2c(C)nc3sc(C)nn23)CC1    804
COc1ccc(Cl)cc1NC(=O)C1CCN(S(=O)(=O)c2cc(-c3noc(C)n3)cs2)CC1    1050
Cc1ccc(NC(=O)N(C)CCc2noc(COc3ccccc3)n2)c(C)c1    934

I. O=C(O)c1cc(-c2cccs2)[nH]c(=O)n1
II. Cc1ccccc1-c1cc2c(=O)n(Cc3nc(-c4ccc5c(c4)OCO5)no3)ccn2n1
Exercise: Field: lower recorded RP-LC retention time (choose I or II ) In your reply, give the label of the chosen option.
Solution: I
(I: 551 s, II: 1050 s)

* * *

- Test: gradient 5% acetonitrile 3 min, to 50% in 2 min, to 85% in 15 min, held 3 min, 100 µL/min
- Assay Conditions: column: Zorbax Extend-C18 2.1 x 50 mm; eluents: water / acetonitrile, 0.1% formic acid
Measured Metric: RP-LC retention time (s)

a. N#CC1=CN(c2cccc(C(F)(F)F)c2)c2ccccc2S1(=O)=O
b. CC(C)NC(=O)CN1CCN(Cc2nc(-c3ccc(N4CCCC4)nc3)no2)CC1
Exercise: Return label of the item with the larger RP-LC retention time. Candidates: a , b . Refer to your chosen item by its label in the answer.
Solution: a

* * *

- Test: gradient 5% acetonitrile 3 min, to 50% in 2 min, to 85% in 15 min, held 3 min, 100 µL/min
- Assay Conditions: column: Zorbax Extend-C18 2.1 x 50 mm; eluents: water / acetonitrile, 0.1% formic acid
Measured Metric: RP-LC retention time (s)

// below: answered compounds
CCOCCCNC(=O)C(C)Oc1ccc(=O)n(-c2ccc(C)c(C)c2)n1 (centres undefined)    871
CCCN1CCN(c2ccc(NC(=O)C(C)(C)C)c(C(=O)O)c2)CC1    611
Cc1ccc2ncn3c(=O)n(CC(=O)Nc4ccc(C(C)C)cc4)nc3c2c1    754
CCN1c2cc(Cl)ccc2C(=O)NC12CCN(C(=O)Nc1ccc3c(c1)OCO3)CC2    826
Cn1ncc2c3ccccc3n(CC(=O)N3CCN(c4ccccc4)CC3)c2c1=O    784
Nc1cc(C2CCN(S(=O)(=O)Cc3ccccc3)CC2)no1    732

1. CCCNC(=O)CCc1nc2ccccc2n(CC(=O)Nc2cccc(SC)c2)c1=O
2. CCc1cc(C(=O)Nc2ccc(C(=O)OC)cc2)nc2cc(-c3ccco3)nn12
Exercise: Which item exceeds the other in RP-LC retention time, 1 or 2 ? Indicate which entry you chose by stating its label.
Solution: 2
(2: 1200 s, 1: 819 s)

* * *

- Test: gradient 5% acetonitrile 3 min, to 50% in 2 min, to 85% in 15 min, held 3 min, 100 µL/min
- Assay Conditions: column: Zorbax Extend-C18 2.1 x 50 mm; eluents: water / acetonitrile, 0.1% formic acid
Measured Metric: RP-LC retention time (s)

CCOC(=O)c1[nH]c(C)c(C(=O)N2CCC(CC(=O)N3CCN(CC)CC3)CC2)c1C    579
CCN1C(=O)Cc2ccccc2C1C(=O)NCc1ccco1 (centres undefined)    690
Cc1ccc(N2CCC(NC(=O)Nc3ccc(C)cc3C)C2=O)cc1 (centres undefined)    875
CCOc1ccc(C(=O)N2CCC3(CC2)NC(=O)c2cc(Cl)ccc2N3C)cc1    853
Cc1ccc(-c2nc3cnccn3c2NCCC(=O)O)cc1    610
CC(CNC(=O)C1CCN(C(=O)c2ncn3c2COC(c2ccc(F)cc2)C3)CC1)c1ccccc1 (centres undefined)    754
CCn1c(=O)n(CC)c2cc(N3CCCC3)c(NC(=O)NCc3cccc(OC)c3)cc21    646
COc1ccc(NC(=O)c2cn3c(n2)CCCC3)cc1Cl    609
CC(C)NP(=O)(NC(C)C)OP(=O)(NC(C)C)NC(C)C    762
Cc1cc(N2CCN(C(=O)c3ccco3)CC2)n2nc(C)c(-c3ccc(Cl)cc3)c2n1    838

P. CC(C)c1noc(-c2cc(=O)n(CC(=O)Nc3cccc(C#N)c3)c3ccccc23)n1
Q. CCOc1nc2ccccc2nc1N1CCCC(C(=O)N2CCN(C)CC2)C1 (centres undefined)
Exercise: Between P and Q , which one shows the smaller RP-LC retention time number? When you have decided, please share the label of that item.
Solution: Q
(Q: 646 s, P: 967 s)

P. Cc1cccc(NC(=O)Nc2ccc3c(c2)CCN3S(=O)(=O)c2ccccc2)c1C
Q. Cc1cc(NC(=O)CSc2nc(-c3cccnc3)ccc2C#N)no1
Exercise: // compare measured RP-LC retention time between P and Q ; output the lower one Please indicate the selected item by its label.
Solution: Q
(Q: 626 s, P: 984 s)

Sourced from the METLIN SMRT retention time set (Domingo-Almenara et al. 2019)
